tested on: ATP; assay: switch fluorescence ratio, 500 uM ATP over buffer (Cy3 cluster intensity, sum of 5 cycles each) (fold (ratio)); higher = stronger signal-on switching upon ATP binding; sequences stand for … in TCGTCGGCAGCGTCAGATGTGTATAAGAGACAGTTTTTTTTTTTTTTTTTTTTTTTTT…TC; settings: aptamer strand: ATP DNA aptamer (quencher-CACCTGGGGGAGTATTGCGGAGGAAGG + anchor), 100 nM annealed; ATP concentration: 500 uM;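 further: ATP exposure 15 min at 22 °C before imaging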
measure.name: switch fluorescence ratio
Answer with a bare number; do not write a unit.

Reference set (3 entries):
[
  {
    "biosequence": "GGTTAAGGAT",
    "target.system": "ATP",
    "readout.value": 0.988
  },
  {
    "biosequence": "TATTTGGCTT",
    "target.system": "ATP",
    "readout.value": 1
  },
  {
    "biosequence": "GTTGGAGGAA",
    "target.system": "ATP",
    "readout.value": 0.976
  }
]

Please find the next sequence below.
query: Can you look up switch fluorescence ratio on ATP for `AAGGATATGG` ?
result: 1.02
